assay: SK-BR-3 cell growth inhibitors, pilot screen, 24 h, human (AID 572);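 also: compound exposure lasted between 18 and 24 h rather than exactly 24 h; 100% = carrier-treated control wells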
test-parameters: SK-BR-3 viability, CellTiter-Glo luminescence, at 10 µM, active compounds read low
Listed here: items and their measured viability.
result-type: viability (%)

| compound | result-type | observed-value |
| --- | --- | --- |
| O=C(COc1ccccc1)NCC(c1cccs1)N1CCOCC1 (stereo unspecified) | viability | 84 |
| O=C(C1CC1(c1ccccc1)c1ccccc1)N1CCOCC1 (stereo unspecified) | viability | 112 |
| O=C(O)c1cc(-c2ccccc2Cl)n[nH]1 | viability | 92 |
| NC(=O)c1ccccc1NC(=O)CCCN1C(=O)CCC1=O | viability | 101 |
| CCOC(=O)NC1(NCc2ccccc2)Oc2ccccc2O1 | viability | 92.5 |
| CCn1c(=O)c(=O)[nH]c2cc(C(=O)N3CCN(c4ccccc4F)CC3)ccc21 | viability | 110 |
| Nc1nc(N2C(=O)C3CC=CCC3C2=O)nn1-c1ccccc1 (stereo unspecified) | viability | 101 |
| COc1ccc(-c2cc(C(=O)N3CCN(Cc4ccccc4)CC3)no2)cc1OC | viability | 99 |
| COc1ccc(Oc2nc(Oc3ccc(OC)cc3)nc(Oc3ccc(OC)cc3)n2)cc1 | viability | 104 |
| C[C@H](NC(=O)OC(C)(C)C)C(=O)NCC1CCC(C(=O)O)CC1 (stereo partly specified) | viability | 101 |
| C(=C\c1ccccc1)/CN1CCN(Cc2ccc3c(c2)OCCO3)CC1 | viability | 85 |
